Tested on: NCI/ADR-RES ovarian
Test: NCI-60 one-dose screen, 48 h (100 = growth as untreated, 0 = no growth, -100 = all killed)
Settings: 10 µM unless noted
About 83,000 compounds went through this panel and 20% of them were active in at least one assay; those are over-represented in the sample as a whole.
Experimental Endpoint: growth (%)
Numbers only, in %.

Past entries and their recorded results:
{"columns": ["Molecule", "growth / %"],
 "data": [
  ["CCC(=O)C(CC(C)N1CCCCCC1)(c1ccccc1)c1ccccc1 (stereo not given)", 102],
  ["C[N+]1(CC#CC[N+]2(C)CCCC2)CCCC1", 102],
  ["CSc1cc(/C=C(\\C)[C@@H]2C[C@@H]3O[C@]3(C)CCC[C@H](C)[C@H](O)[C@@H](C)C(=O)C(C)(C)[C@@H](O)CC(=O)O2)n(CCNC(=O)OC(C)(C)C)n1", 40.4],
  ["O=C1NC(=O)C(=C/C=C/c2ccccc2)C(=O)N1", -29.1],
  ["C[C@]12CC[C@@H](OC(=O)N(CCCl)N=O)C[C@@H]1CC[C@@H]1[C@@H]2CC[C@]2(C)C(=O)CC[C@@H]12", 42.9],
  ["CCN(CC)CCn1c(=O)n(C)c2ccccc21", 101]
]}

Hello, I would appreciate it if you could give growth for each entry below.
1. S=P(SP(=S)(c1ccccc1)c1ccccc1)(c1ccccc1)c1ccccc1
2. O=[N+]([O-])c1c(Cl)cc(Cl)c([N+](=O)[O-])c1Cl
3. COc1ccc(C(C#N)C(C)=O)cc1 (stereo not given)
4. O=C1C=C(N2CC2)c2ccccc2C1=O

Result ::
1: 104; 2: 103; 3: 102; 4: 62.7

---

Would you mind telling me the reported growth of each entry?
System: HL-60(TB) leukemia
Assay: NCI-60 one-dose screen, 48 h (100 = growth as untreated, 0 = no growth, -100 = all killed)
Conditions: 10 µM unless noted
Compounds without any hit were thinned out: in the full panel of roughly 83,000, 20% have a hit. Calls of active or inactive are those of the source. Rule for the calls: active = growth percent below 10; inactive = the rest.

# per-item lookup of growth; items listed below
1. O=[N+]([O-])c1ccc2scc3c4ccccc4nc-3c2c1
2. CCC(Br)(CC)C(=O)NC(N)=O
3. OCCNC1CCCCC1
4. NC1CN2CCC1CC2 (stereo unspecified)
5. COc1cc2c(cc1OC)[C@@H]1C(=O)c3ccc4c(c3O[C@@H]1CO2)C[C@H](C(C)C)O4
6. CC12CCC3C(CCC4CC(O)CCC43C)C1CCC2=O (stereo unspecified)
7. O=[N+]([O-])c1cc(Cl)c(Cl)cc1Cl
8. OC[C@@H](O)[C@@H](O)CO

Result ::
["1.24% (active)", "99.6% (inactive)", "100% (inactive)", "84.9% (inactive)", "19% (inactive)", "92.3% (inactive)", "114% (inactive)", "92.4% (inactive)"]

Hey, quick one: what's growth for each of these?
1. CN(C)c1ccc(C=C2C(=O)NC(=O)NC2=O)cc1
2. COC(=O)C12C3C4C1C1C2C3C41NC(=O)c1csc([C@@H](C[C@H](C(C)C)N(C)C(=O)[C@@H](NC(=O)[C@H]2CCCCN2C)C2CC2)OC(C)=O)n1 (stereo partly specified)
3. CC[C@H](C)[C@H](NC(=O)[C@H]1CCCCN1C)C(=O)N(C)[C@H](C[C@@H](OC(C)=O)c1nc(C(=O)NC23C4C5C2C2C3C4C52C(=O)OC)cs1)C(C)C (stereo partly specified)
4. CC(=O)Nc1nc2c(s1)C1=CC[C@H]3[C@@H]4CC[C@H](OC(C)=O)[C@@]4(C)CC[C@@H]3[C@@]1(C)CC2
5. O=C(O)CNCP(=O)(O)O
6. O=C1CCCCC1CN1CCCCC1 (stereo unspecified)
7. Oc1cc(Cl)ccc1Oc1ccc(Cl)cc1Cl
8. C[C@@H]1C/C=C\C(=O)O[C@H](/C=C/C#C/C=C/C(C)(C)[C@@H](O)c2cccc(O)c2Br)[C@@H](C)/C=C/[C@H](C)C[C@H](OC(N)=O)C1

Result ::
1: 102% (inactive); 2: -37.4% (active); 3: -32.8% (active); 4: 43.4% (inactive); 5: 95.8% (inactive); 6: 93.4% (inactive); 7: -24.9% (active); 8: 3.08% (active)
